experiment: Thermodynamic solubility in simulated intestinal fluid (TS in FaSSIF); assay type: physicochemical; conditions: thermodynamic from solid, 37° C.
Just so you know, the groups by solubility thermodynamic at 4 h go like this: I: < 50 µg/mL; II: ≥ 50 µg/mL and < 100 µg/mL; III: ≥ 100 µg/mL

[[record]]
compound = "COc1cc2nnc(-c3cc(C)on3)n2nc1OCc1ccc2c(n1)CCN(CCC#N)C2 [Embodiment 90]"
label_class = "II"

[[record]]
compound = "COCCn1ncc2nc(COc3nn4c(-c5cc(C)on5)nnc4cc3OC)ccc21 [Embodiment 241]"
label_class = "II"

[[record]]
compound = "COCc1ccc(COc2nn3c(-c4cc(C)on4)nnc3cc2OC)nn1 [Embodiment 151]"
label_class = "III"

[[record]]
compound = "COc1cc2nnc(-c3cc(C)on3)n2nc1OCc1ccc2nnc(C)n2n1 [Embodiment 216]"
label_class = "III"

[[record]]
compound = "COc1cc2nnc(-c3cc(C)on3)n2nc1OCc1cccc2nccn12 [Embodiment 135]"
label_class = "I"

[[record]]
compound = "COc1cc2nnc(-c3cc(C)on3)n2nc1OCc1ccc(OCC2(C)COC2)nn1 [Embodiment 150]"
label_class = "III"

[[record]]
compound = "COc1cc2nnc(-c3cc(C)on3)n2nc1OCc1ccc2c(n1)CN(C(C)C)C2 [Embodiment 102]"
label_class = "I"

[[record]]
compound = "COc1cc2nnc(-c3cc(C)on3)n2nc1OCc1ccc2ncn(C3CCOCC3)c2n1 [Embodiment 247]"
label_class = "I"

[[record]]
compound = "COCCOc1cnc(COc2nn3c(-c4cc(C)on4)nnc3cc2OC)cn1 [Embodiment 85]"
label_class = "II"

[[record]]
compound = "COc1cc2nnc(-c3cc(C)on3)n2nc1OCc1ccc(OC2CCOCC2)cn1 [Embodiment 174]"
label_class = "I"

[[record]]
compound = "CCOCCCOc1ccc(COc2nn3c(-c4cc(C)on4)nnc3cc2OC)nn1 [Embodiment 168]"
label_class = "II"

[[record]]
compound = "COc1cc2nnc(-c3cc(C)on3)n2nc1OCc1ccc(C2(F)CN(C3COC3)C2)cn1 [Embodiment 128]"
label_class = "III"

[[record]]
compound = "COc1cc2nnc(-c3cc(C)on3)n2nc1OCc1ccc2c(n1)CCN(C1CCOCC1)C2 [Embodiment 186]"
label_class = "II"

[[record]]
compound = "COCCCOc1cc(C)c(COc2nn3c(-c4cc(C)on4)nnc3cc2OC)nn1 [Embodiment 156]"
label_class = "II"

[[record]]
compound = "CCS(=O)(=O)N1CCc2nc(COc3nn4c(-c5cc(C)on5)nnc4cc3OC)ccc2C1 [Embodiment 210]"
label_class = "I"

[[record]]
compound = "COc1cc2nnc(-c3cc(C)on3)n2nc1OCc1ccc2c(n1)CCN(CCS(C)(=O)=O)C2 [Embodiment 113]"
label_class = "III"

